Recorded values, source ChEMBL document CHEMBL1140325.

- System Tested: C-8 sterol isomerase ERG2 (Saccharomyces cerevisiae S288c, UniProt P32352)
- Sequence (P32352 whole entry): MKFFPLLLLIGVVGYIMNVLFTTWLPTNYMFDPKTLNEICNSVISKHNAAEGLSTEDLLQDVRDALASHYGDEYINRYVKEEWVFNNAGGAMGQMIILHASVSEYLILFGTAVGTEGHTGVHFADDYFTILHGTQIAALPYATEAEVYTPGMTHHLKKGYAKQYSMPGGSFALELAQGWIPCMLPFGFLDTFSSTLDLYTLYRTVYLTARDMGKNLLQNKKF
- Method: Affinity for ERG2 of Saccharomyces cerevisiae using [3H]ifenprodil or (+)-[3H]pentazocine radioligand
- Reported Conditions: read-out: Ki
Could you please classify the records by Ki using these ranges: label 0 = under 2 nM, label 1 = from 2 nM up to 200 nM, label 2 = 200 nM and over

Please classify: COc1ccc2c(c1)CCC(c1ccccc1)=C2c1ccc(OCCN2CCCC2)cc1 [NAFOXIDINE]
label 2

Please classify: CCCCN1CCC2(CCCc3ccccc32)CC1
label 1

Please classify: CCN(C/C=C/c1ccc(C2CCCCC2)c(Cl)c1)C1CCCCC1
label 1

Please classify: CCN(CC)CCO[C@H]1CC[C@@]2(C)C(=CC[C@@H]3[C@@H]2CC[C@]2(C)C(=O)CC[C@@H]32)C1
label 0

Please classify: CN(c1nc2ccccc2s1)C1CCN(CCCCOc2ccccc2)C1 (centres undefined)
label 1

Please classify: O=C(c1ccc(OCCN2CCCCC2)cc1)c1c(-c2ccc(O)cc2)sc2cc(O)ccc12 [RALOXIFENE]
label 1

Please classify: CN1CCN(CCCN2c3ccccc3Sc3ccc(C(F)(F)F)cc32)CC1 [TRIFLUOPERAZINE]
label 2

Please classify: CCN(CC)CCOc1ccc(/C(=C(/Cl)c2ccccc2)c2ccccc2)cc1 [ENCLOMIPHENE]
label 1

Please classify: CC(Cc1ccc(C(C)(C)C)cc1)CN1C[C@@H](C)O[C@@H](C)C1 (some centres undefined) [FENPROPIMORPH]
label 0

Please classify: CC/C(=C(/CC)c1ccc(OCCN(CC)CC)cc1)c1ccc(OCCN(CC)CC)cc1
label 0

Please classify: CC(C)=CCN1CC[C@@]2(C)c3cc(O)ccc3CC1[C@H]2C
label 2

Please classify: CCCCCCCCCCCCCN1C[C@@H](C)O[C@@H](C)C1
label 0

Please classify: CC(=O)[C@H]1CC[C@H]2[C@@H]3CCC4=CC(=O)CC[C@]4(C)[C@H]3CC[C@]12C [PROGESTERONE]
label 2

Please classify: N=C(NCCSC(c1ccccc1)c1ccccc1)NCCc1cnc[nH]1
label 1

Please classify: O=C(CCCN1CCC(O)(c2cccc(C(F)(F)F)c2)CC1)c1ccc(F)cc1 [TRIFLUPERIDOL]
label 0

Please classify: O=C(CCCN1CCC(O)(c2ccc(Cl)cc2)CC1)c1ccc(F)cc1 [HALOPERIDOL]
label 0

Please classify: CC(C)[C@@](C#N)(CCCN(C)CCc1ccccc1)c1ccccc1 [LEVEMOPAMIL]
label 1

Please classify: OCCN1CCN(CCCN2c3ccccc3C=Cc3ccccc32)CC1 [OPIPRAMOL]
label 1

###

- System Tested: 3-beta-hydroxysteroid-Delta(8),Delta(7)-isomerase (Homo sapiens, UniProt Q15125)
- Sequence (Q15125 whole entry): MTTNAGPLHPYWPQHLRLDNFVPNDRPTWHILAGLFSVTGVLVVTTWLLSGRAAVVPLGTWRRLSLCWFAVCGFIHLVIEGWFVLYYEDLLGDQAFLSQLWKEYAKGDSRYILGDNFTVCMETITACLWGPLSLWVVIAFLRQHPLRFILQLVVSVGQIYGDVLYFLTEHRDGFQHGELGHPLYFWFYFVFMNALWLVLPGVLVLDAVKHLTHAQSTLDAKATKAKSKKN
- Method: Affinity for human EMP expressed in ERG2 deficient strain of Saccharomyces cerevisiae using [3H]ifenprodil or (+)-[3H]pentazocine as radioligand
Observed Property: Ki (nM)
Express your answer in nM, writing the number without its unit.

COc1cc(OC)c(C(=O)CCCN2CCCC2)c(OC)c1 [BUFLOMEDIL] = 60

Now for a further molecule.
Reported Ki for CCN(CC)CCOc1ccc(C(O)(Cc2ccc(Cl)cc2)c2ccc(C)cc2)cc1 (centres undefined) [TRIPARANOL] was 11
